Data origin: patent US10980754B2

test: Cytotoxicity in hepatoma cells (MTS); settings: human, HepDES19 cells, CC50, HepDES19 cells, 72 hours, MTS
test.readout: CC50 at 72 h (µM)
The reply should contain only the number, in µM.

These recorded examples may help you get a feel for the data.
> print(dat)
                                   compound  experimental.result
1        Cc1cc(O)c(=O)c(O)cc1C(=O)c1ccccc1O                   20
2  O=c1c(O)ccccc1O [Compound 172, 7-Hydroxytropolone]                  100
3         COC(=O)c1c2c(cc(O)c(=O)c1O)COC2=O                   66

Okay, next one:
Exercise: Could you tell me which CC50 at 72 h is on file for "CC(C)c1ccc(O)c(=O)c(O)c1" ?
Solution: 23

###

assay: Cytotoxicity in hepatoma cells (MTS); details: human, HepDES19 cells, CC50; HepDES19, MTS
test.readout: CC50 at 72 h (µM)
Give your result in µM as a bare value.

> print(dat)
                           compound  test.readout  reading.unit  experimental.result
1  Cc1ccc(S(=O)(=O)Oc2cccccc2=O)cc1  CC50 at 72 h            µM                 30.5

Consider the additional compound presented here.
Exercise: Need CC50 at 72 h, item CC(=O)NC(CCc1ccc(Cl)c(Cl)c1)c1cccc(O)c(=O)c1 (centres unmarked)
Solution: 4

###

Entries annotated with measured CC50
test system: HepDES19 cells; assay: Cytotoxicity in hepatoma cells (MTS); conditions: 72 hours, MTS

> print(dat)
          given.smiles  experimental.result
1  O=Nc1ccc(O)c(=O)cc1              17.5 µM

Exercise: Entry "O=C(Oc1cccccc1=O)c1ccccc1Cl" : reported CC50 = ?
Solution: 96.5 µM

###

// MIC80 lookup, one value per entry
system: C. neoformans var grubii, KN99; experiment: Inhibition of C. neoformans growth, limiting dilution assay (MIC); type: cell-based; conditions: Cryptococcus neoformans; KN99α, YNB-02+1% DMSO, 35° C., 48 hours; minimal concentration inhibiting 80% of growth relative to vehicle
Field: numeric (µM). Do not append units.

See these solved cases before continuing.
> print(dat)
                                   compound  experimental.result
1         Cc1cc(O)c(=O)c(O)cc1C(=O)C1CCCCC1                   12
2  Cc1cc(O)c(=O)c(O)cc1-c1ccc([N+](=O)[O-])cc1                   49
3             Cc1cc(O)c(=O)c(O)cc1-c1ccccc1                   24
4                O=c1c(O)ccc(-c2ccccc2)cc1O                   18
5                CC(=O)c1cc(O)c(=O)c(O)cc1C                   50
6      COC(=O)c1c(C)cc(O)c(=O)c(O)c1C(=O)OC                   41

Exercise: Data request, read-out MIC80, for C=C(C)C1CCc2c(c(C)cc(O)c(=O)c2O)C1 (stereo not shown)
Solution: 50

Exercise: Given the entry "Cc1cc(O)c(=O)c(O)cc1-c1ccc(Br)cc1" , report its measured MIC80.
Solution: 11

Exercise: State the recorded MIC80 for this entry: "Cc1cc(O)c(=O)c(O)cc1-c1cccc2ccccc12"
Solution: 20

Exercise: Can you look up the measured MIC80 of "O=C(Oc1cccccc1=O)c1ccc(Cl)cc1" for me?
Solution: 17
